test: Binding affinity to PBR in rhesus monkey mitochondrial tissue; set-up: species or system Macaca mulatta
pKi: −log10 of the molar value.
Listed next: entries and their corresponding pKi.
Quantity Name: pKi

1. CC(=O)N(Cc1ccccc1C(=O)O[11CH3])c1ccccc1Oc1ccccc1 | 9.60
2. CC(=O)N(Cc1ccccc1O[11CH3])c1cnccc1Oc1ccccc1 | 9.03
3. CC[C@H](C)N([11CH3])C(=O)c1cc2ccccc2c(-c2ccccc2Cl)n1 | 8.36
4. COc1ccc(O[11CH3])c(CN(C(C)=O)c2cc(F)ccc2Oc2ccccc2)c1 | 9.64

---

test: Biodistribution in rhesus monkey plasma free fraction of blood; assay type: ADME, organism-based, Macaca mulatta
Quantity Name: fraction unbound

1. CC(=O)N(Cc1ccccc1O[11CH3])c1cnccc1Oc1ccccc1 | 0.056
2. CC(=O)N(Cc1ccccc1C(=O)O[11CH3])c1ccccc1Oc1ccccc1 | 0.0015
